Let's look at some compounds and their measured TGI.
System: NCI-H522 lung
Assay: NCI tumour cell line growth inhibition, 48 h

Cc1cc(NS(=O)(=O)c2ccc(Nc3c4ccccc4nc4c(C(=O)N5CCN(CCO)CC5)cccc34)cc2)no1 :: > 100 µM
O=C1CC(c2cccc([N+](=O)[O-])c2)C2(C(=O)NC(=O)NC2=O)C(c2cccc([N+](=O)[O-])c2)C1 (centres undefined) :: > 100 µM

Need TGI of O=C1C2C3C=C4c5ccccc5N(c5ccccc5)C4(C2C(=O)N1c1ccc([N+](=O)[O-])cc1)[C@H]1C(=O)N(c2ccc([N+](=O)[O-])cc2)C(=O)[C@@H]31 (some centres undefined) , thanks.
> 100 µM

Need TGI of `NS(=O)(=O)c1ccc(-c2ccc3c(NC(=O)C4CC4)n[nH]c3c2)cc1` , thanks.
> 25 µM

###

Test system: HL-60(TB) leukemia
Experiment: NCI tumour cell line growth inhibition, 48 h
Measurement Type: TGI

Field: example entries. Status: answers known.
N#C/C(=C/NC(N)=S)C(N)=O :: > 100 µM
Nc1nc([O-])c2c(n1)[n+](C1OC(CO)C(O)C1O)cn2CCO (configuration not stated) :: > 100 µM
COc1cc(-c2nc3ccccn3c2/N=C/c2cc(Br)cc(Br)c2O)ccc1O :: 46.4 µM
CN1CCN(CCCNc2nc3ccc(Oc4ccc(NC(=O)Nc5cc(C(F)(F)F)ccc5F)cc4)cc3[nH]2)CC1 :: 10.3 µM
CN(C)CCCN=c1c2ccccc2n(O)c2ccccc12 :: > 100 µM
CCCCCCCCCCCCCCCC(=O)OCC(C[As](=O)(O)O)OC(=O)CCCCCCCCCCCCCCC (configuration not stated) :: > 100 µM
COC(=O)c1cc2c(cc1CC(Cc1ccc3c(c1)CCCC3)C(=O)OC)CCCC2 (configuration not stated) :: 29.7 µM
CCCCC1Cc2ccccc2-c2nc3ccccc3n21 (configuration not stated) :: 0.231 µM

# next compound below
Need TGI of `Cc1ccc(NC(=O)c2cccc(C(C)(C)C#N)c2)cc1Nc1ccc2ncn(C)c(=O)c2c1` , thanks.
13.9 µM

###

System: MCF7 breast
Test: NCI tumour cell line growth inhibition, 48 h
Measurement Type: TGI

Field: example entries. Status: answers known.
N#C[C@@H](c1ccccn1)c1ncccc1[N+](=O)[O-] :: > 100 µM
CN(C)CCCN=c1c2ccccc2n(O)c2ccccc12 :: > 100 µM
C=CCCCCC/C=C\[C@@H](O)C#CC#C/C=C/CO :: > 100 µM

Need TGI of `O=S(=O)(c1ccc(NC(=S)NC23CC4CC(CC(C4)C2)C3)cc1)N1CCCCC1` , thanks.
> 100 µM

Need TGI of `CCOC(=O)Cn1c(=O)ccn(COCCO)c1=O` , thanks.
> 100 µM

###

System: MDA-N
Test: NCI tumour cell line growth inhibition, 48 h
Measurement Type: TGI

Field: example entries. Status: answers known.
N#CCCC(CCC#N)(CCC#N)NO :: > 100 µM
CCCCCCCCCCCCCCCC(=O)OCC(C[As](=O)(O)O)OC(=O)CCCCCCCCCCCCCCC (stereo unspecified) :: > 100 µM
Nc1nc(-c2ccccc2)cc(-c2ccc(OCc3ccccc3)cc2O)n1 :: > 100 µM
O=C(N/N=C\C=C\c1ccc([N+](=O)[O-])o1)C(=O)N/N=C\C=C\c1ccc([N+](=O)[O-])o1 :: > 100 µM
O=C1c2cccnc2-c2nc(-c3ccc(Cl)cc3)cc3c2c1nc1ccccc13 :: > 100 µM

# next molecule below
Need TGI of CC1=C(/C=C/Cl)CC(Cl)C(C)(Cl)C1 (stereo unspecified) , thanks.
> 100 µM
